assay: Heat stability test (UV-absorption left after storage at 50° C.); assay type: physicochemical; conditions: 100 days at 50° C. in the dark; 1.5% in C12-C15 alkyl benzoate oil (compound 12: 5% in water); 375 nm versus sample stored at room temperature
quantity-measured: Heat stability: UV-absorption left after 100 days

# compound, result
data = [
    ("CCCCCCCCOC(=O)C(=CC=CN(CCN(C=CC=C(C(=O)OCCCCCCCC)S(=O)(=O)c1ccccc1)Cc1ccccc1)CCN(C=CC=C(C(=O)OCCCCCCCC)S(=O)(=O)c1ccccc1)Cc1ccccc1)S(=O)(=O)c1ccccc1 [Compound 9]", "++ (++ means >95% left)"),
    ("CCCCCCCCOC(=O)C(=CC=CN(CCN(CCN(C=CC=C(C(=O)OCCCCCCCC)S(=O)(=O)c1ccccc1)Cc1ccccc1)CCN(C=CC=C(C(=O)OCCCCCCCC)S(=O)(=O)c1ccccc1)Cc1ccccc1)Cc1ccccc1)S(=O)(=O)c1ccccc1 [Compound 7]", "++ (++ means >95% left)"),
]

* * *

test system: human skin; assay: Skin penetration test in diffusion cell; assay type: in vitro ADME; details: human skin, diffusion cell, 20 hrs
quantity-measured: penetration through the skin (UV-analysis of collected receptor fluids), in words

# structure-string, tested-system, result
rows = [
    ("CCCCCCCCOC(=O)C(=CC=CN(CCN(CCN(C=CC=C(C(=O)OCCCCCCCC)S(=O)(=O)c1ccccc1)Cc1ccccc1)CCN(C=CC=C(C(=O)OCCCCCCCC)S(=O)(=O)c1ccccc1)Cc1ccccc1)Cc1ccccc1)S(=O)(=O)c1ccccc1", "human skin", "no penetration"),
    ("CCCCCCCCOC(=O)C(=CC=CN(CCCC)CCCCCCN(C=CC=C(C(=O)OCCCCCCCC)S(=O)(=O)c1ccccc1)CCCCCCN(C=CC=C(C(=O)OCCCCCCCC)S(=O)(=O)c1ccccc1)CCCC)S(=O)(=O)c1ccccc1", "human skin", "no penetration"),
    ("CCCCCCCCOC(=O)C(=CC=CN(CCN(C=CC=C(C(=O)OCCCCCCCC)S(=O)(=O)c1ccccc1)Cc1ccccc1)CCN(C=CC=C(C(=O)OCCCCCCCC)S(=O)(=O)c1ccccc1)Cc1ccccc1)S(=O)(=O)c1ccccc1", "human skin", "no penetration"),
    ("CCCCCCCCOC(=O)C(=CC=CN(CCCCCCN(C=CC=C(C(=O)OCCCCCCCC)S(=O)(=O)c1ccccc1)Cc1ccccc1)CCCCCCN(C=CC=C(C(=O)OCCCCCCCC)S(=O)(=O)c1ccccc1)Cc1ccccc1)S(=O)(=O)c1ccccc1", "human skin", "no penetration"),
]

Then this molecule:
With human skin as the test system, CCCCCCCCOC(=O)C(=CC=CN(CCCN(CCCCN(CCCN(C=CC=C(C(=O)OCCCCCCCC)S(=O)(=O)c1ccccc1)Cc1ccccc1)CCCN(C=CC=C(C(=O)OCCCCCCCC)S(=O)(=O)c1ccccc1)Cc1ccccc1)CCCN(C=CC=C(C(=O)OCCCCCCCC)S(=O)(=O)c1ccccc1)Cc1ccccc1)Cc1ccccc1)S(=O)(=O)c1ccccc1 showed penetration through the skin (UV-analysis of collected receptor fluids), in words of no penetration

* * *

assay: Solubility test in C12-C15 alkyl benzoate oil (Finsolv TN); assay type: physicochemical; design: key: +=well-soluble; −=not soluble; conditions: 90% m/m; dissolved at 80° C. for 1 hour, cooled to room temperature, inspected after 24 hours
quantity-measured: Solubility in Finsolv TN, dissolved amount (m/m %) 90%

# compound, result
measured = [
    ("CC(C)OC(=O)C(=CC=CN(CCCCCCN(C=CC=C(C(=O)OC(C)C)S(=O)(=O)c1ccccc1)Cc1ccccc1)CCCCCCN(C=CC=C(C(=O)OC(C)C)S(=O)(=O)c1ccccc1)Cc1ccccc1)S(=O)(=O)c1ccccc1 [Compound 17]", "−"),
    ("CCCCCCCCOC(=O)C(=CC=CN(CCCC)CCN(C=CC=C(C(=O)OCCCCCCCC)S(=O)(=O)c1ccccc1)CCN(C=CC=C(C(=O)OCCCCCCCC)S(=O)(=O)c1ccccc1)CCCC)S(=O)(=O)c1ccccc1 [Compound 13]", "−"),
    ("CCCCCCCCOC(=O)C(=CC=CN(CCCCCCN(C=CC=C(C(=O)OCCCCCCCC)S(=O)(=O)c1ccccc1)Cc1ccccc1)CCCCCCN(C=CC=C(C(=O)OCCCCCCCC)S(=O)(=O)c1ccccc1)Cc1ccccc1)S(=O)(=O)c1ccccc1 [Compound 4]", "+"),
    ("CCCCCCCCCCCCCCCCCCOC(=O)C(=CC=CN(CCCCCCN(C=CC=C(C(=O)OCCCCCCCCCCCCCCCCCC)S(=O)(=O)c1ccccc1)Cc1ccccc1)CCCCCCN(C=CC=C(C(=O)OCCCCCCCCCCCCCCCCCC)S(=O)(=O)c1ccccc1)Cc1ccccc1)S(=O)(=O)c1ccccc1 [Compound 19]", "+"),
]

The record that follows has no Solubility in Finsolv TN, dissolved amount (m/m %) 90% shown yet.
Sure, the documented Solubility in Finsolv TN, dissolved amount (m/m %) 90% for CCCCC(CC)COC(=O)C(=CC=CN(CCCCCCN(C=CC=C(C(=O)OCC(CC)CCCC)S(=O)(=O)c1ccccc1)Cc1ccccc1)CCCCCCN(C=CC=C(C(=O)OCC(CC)CCCC)S(=O)(=O)c1ccccc1)Cc1ccccc1)S(=O)(=O)c1ccccc1 (centres unmarked) [Compound 18] is −

* * *

assay: Solubility test in C12-C15 alkyl benzoate oil (Finsolv TN); type: physicochemical; parameters: key: +=well-soluble; −=not soluble; conditions: 20% m/m; dissolved at 80° C. for 1 hour, cooled to room temperature, inspected after 24 hours
quantity-measured: Solubility in Finsolv TN, dissolved amount (m/m %) 20%

# compound, result
data = [
    ("CCCCCCCCCCCCCCCCCCOC(=O)C(=CC=CN(CCCCCCN(C=CC=C(C(=O)OCCCCCCCCCCCCCCCCCC)S(=O)(=O)c1ccccc1)Cc1ccccc1)CCCCCCN(C=CC=C(C(=O)OCCCCCCCCCCCCCCCCCC)S(=O)(=O)c1ccccc1)Cc1ccccc1)S(=O)(=O)c1ccccc1", "+"),
    ("CCCCCCCCOC(=O)C(=CC=CN(CCCCCCN(C=CC=C(C(=O)OCCCCCCCC)S(=O)(=O)c1ccccc1)Cc1ccccc1)CCCCCCN(C=CC=C(C(=O)OCCCCCCCC)S(=O)(=O)c1ccccc1)Cc1ccccc1)S(=O)(=O)c1ccccc1", "+"),
    ("CCCCC(CC)COC(=O)C(=CC=CN(CCCCCCN(C=CC=C(C(=O)OCC(CC)CCCC)S(=O)(=O)c1ccccc1)Cc1ccccc1)CCCCCCN(C=CC=C(C(=O)OCC(CC)CCCC)S(=O)(=O)c1ccccc1)Cc1ccccc1)S(=O)(=O)c1ccccc1 (centres unmarked)", "−"),
    ("CCCCCCCCOC(=O)C(=CC=CN(CCCC)CCN(C=CC=C(C(=O)OCCCCCCCC)S(=O)(=O)c1ccccc1)CCN(C=CC=C(C(=O)OCCCCCCCC)S(=O)(=O)c1ccccc1)CCCC)S(=O)(=O)c1ccccc1", "+"),
]

get_value(item= CC(C)OC(=O)C(=CC=CN(CCCCCCN(C=CC=C(C(=O)OC(C)C)S(=O)(=O)c1ccccc1)Cc1ccccc1)CCCCCCN(C=CC=C(C(=O)OC(C)C)S(=O)(=O)c1ccccc1)Cc1ccccc1)S(=O)(=O)c1ccccc1 , readout=Solubility in Finsolv TN, dissolved amount (m/m %) 20%) returns −

* * *

experiment: Solubility test in C12-C15 alkyl benzoate oil (Finsolv TN); format: physicochemical; set-up: key: +=well-soluble; −=not soluble; settings: 80% m/m; dissolved at 80° C. for 1 hour, cooled to room temperature, inspected after 24 hours
quantity-measured: Solubility in Finsolv TN, dissolved amount (m/m %) 80%

Consider the reported Solubility in Finsolv TN, dissolved amount (m/m %) 80% for these molecules:
# molecule, result
records = [
    ("CCCCCCCCCCCCCCCCCCOC(=O)C(=CC=CN(CCCCCCN(C=CC=C(C(=O)OCCCCCCCCCCCCCCCCCC)S(=O)(=O)c1ccccc1)Cc1ccccc1)CCCCCCN(C=CC=C(C(=O)OCCCCCCCCCCCCCCCCCC)S(=O)(=O)c1ccccc1)Cc1ccccc1)S(=O)(=O)c1ccccc1 [Compound 19]", "+"),
    ("CCCCC(CC)COC(=O)C(=CC=CN(CCCCCCN(C=CC=C(C(=O)OCC(CC)CCCC)S(=O)(=O)c1ccccc1)Cc1ccccc1)CCCCCCN(C=CC=C(C(=O)OCC(CC)CCCC)S(=O)(=O)c1ccccc1)Cc1ccccc1)S(=O)(=O)c1ccccc1 (centres unmarked) [Compound 18]", "−"),
    ("CCCCCCCCOC(=O)C(=CC=CN(CCCCCCN(C=CC=C(C(=O)OCCCCCCCC)S(=O)(=O)c1ccccc1)Cc1ccccc1)CCCCCCN(C=CC=C(C(=O)OCCCCCCCC)S(=O)(=O)c1ccccc1)Cc1ccccc1)S(=O)(=O)c1ccccc1 [Compound 4]", "+"),
    ("CC(C)OC(=O)C(=CC=CN(CCCCCCN(C=CC=C(C(=O)OC(C)C)S(=O)(=O)c1ccccc1)Cc1ccccc1)CCCCCCN(C=CC=C(C(=O)OC(C)C)S(=O)(=O)c1ccccc1)Cc1ccccc1)S(=O)(=O)c1ccccc1 [Compound 17]", "−"),
]

From here, focus on the item given below.
The recorded Solubility in Finsolv TN, dissolved amount (m/m %) 80% for entry CCCCCCCCOC(=O)C(=CC=CN(CCCC)CCN(C=CC=C(C(=O)OCCCCCCCC)S(=O)(=O)c1ccccc1)CCN(C=CC=C(C(=O)OCCCCCCCC)S(=O)(=O)c1ccccc1)CCCC)S(=O)(=O)c1ccccc1 [Compound 13] equals −
